// provenance: ChEMBL document CHEMBL1201862

# Tested on: Hs-578T
# assay-procedure: NCI tumour cell line growth inhibition, 48 h
Activity calls are given as the source filed them. Rule as the data show it: active = GI50 up to about 1.1 µM and inactive = higher.
Measured GI50 by item

Worked set:
molecule=Sc1nc(S)nc(Oc2ccc(Cl)c(Cl)c2)n1 measured_property=GI50 result="89.1 µM (inactive)"
molecule=Nc1ccc(Oc2ccc(C3(c4ccc(Oc5ccc(N)cc5)cc4)C4CC5CC(C4)CC3C5)cc2)cc1 measured_property=GI50 result="> 22.1 µM (inactive)"
molecule=Cc1cc2[nH]c(Cl)c(/C=C3\C(=O)Nc4ccccc43)c2cc1O measured_property=GI50 result="4.18 µM (inactive)"
molecule="Cc1ccc(/C=C2\\N=C(N3CCCC(CO)C3)NC2=O)cc1 (stereo unspecified)" measured_property=GI50 result="> 100 µM (inactive)"
molecule="CC(=O)Nc1ccc(C(=O)NN2C(=O)C(Cl)C2c2cc(Br)ccc2O)cc1 (stereo unspecified)" measured_property=GI50 result="66.1 µM (inactive)"

QUERY: Form field: GI50 recorded for COC(=O)Cc1cccc2c(=O)c(S(=O)(=O)NC(=O)Nc3ccc(Cl)cc3)c(-c3ccccc3)oc12 with Hs-578T (enter value)
RESULT: > 100 µM (inactive)

QUERY: Form field: GI50 recorded for O=C(Nc1nncs1)NS(=O)(=O)n1cnc2ccccc21 with Hs-578T (enter value)
RESULT: > 100 µM (inactive)

* * *

# System: OVCAR-4
# assay-procedure: NCI tumour cell line growth inhibition, 48 h
Calls of active or inactive are those of the source. Cut-off read from the data, not from the text of the source: active = GI50 up to about 1.1 µM and inactive = higher.
measured-property: GI50

Worked set:
compound=CC1S(=O)(=O)OCCOS1(=O)=O result="> 100 µM (inactive)"
compound=COc1ccc2c(c1)[n+]([O-])c(C(=O)CC(=O)C(=O)Nc1cccc(Cl)c1C)c(C)[n+]2[O-] result="> 100 µM (inactive)"
compound="CCC(c1ccc(N(C)C)cc1)C1NC(=S)NC1=O (stereo unspecified)" result="62.7 µM (inactive)"
compound="CC1OC(=O)c2ccccc2NC1=O (stereo unspecified)" result="> 100 µM (inactive)"
compound=O=c1cc2ccccc2nn1Cc1ccccc1Cl result="> 100 µM (inactive)"

QUERY: # GI50 lookup, item CSc1nc2c(c(=O)n1C)N=C(c1ccccc1)[C@H](C(CC(=O)c1ccccc1)c1ccccc1)C(c1ccccc1)N2 (stereo partly specified)
RESULT: 23.6 µM (inactive)

QUERY: # GI50 lookup, item CC#Cc1cc2c(cc1O)CC[C@@H]1[C@@H]2CC[C@]2(C)[C@@H](O)CC[C@@H]12
RESULT: 12.8 µM (inactive)

QUERY: # GI50 lookup, item O=C1c2ccc(O)cc2OC(c2cc(O)c(O)c(O)c2)C1O (stereo unspecified) [DIHYDROBINETIN]
RESULT: 37.9 µM (inactive)

QUERY: # GI50 lookup, item Nc1nc(O)c2ncn([C@H]3CC[C@@H](CO)O3)c2n1
RESULT: > 100 µM (inactive)

QUERY: # GI50 lookup, item Cc1nc2ccccc2n1Cc1ccc(NC(=S)Nc2ccccc2)cc1
RESULT: 28.6 µM (inactive)

QUERY: # GI50 lookup, item Sc1nc(S)nc(Oc2ccc(Cl)c(Cl)c2)n1
RESULT: 41.1 µM (inactive)

* * *

# Test system: SK-MEL-2
# assay-procedure: NCI tumour cell line growth inhibition, 48 h
The source made the active and inactive calls. Rule as the data show it: active = GI50 up to about 1.1 µM and inactive = higher.
Lab note: assign the record to one of active, inactive

molecule=CCOc1ccc2c(c1)/C(=C(\C(Cl)=C(Cl)Cl)[N+](=O)[O-])N2 category=inactive
molecule=N=C(N)NS(=O)(=O)c1ccc(NC(=O)c2cccc3c(NNc4ccc(S(N)(=O)=O)cc4)c4ccccc4nc23)cc1 category=inactive
molecule=Cc1ccccc1/N=C/c1ccc(N(CCC#N)S(=O)(=O)c2ccccc2)cc1 category=inactive
molecule="CC1CCCCCC(=O)c2c(O)cc(O)cc2CC(=O)O1 (centres undefined)" category=inactive

Switching to the query record.
QUERY: Name the outcome recorded for CN1CCN(CCCN2c3ccccc3Sc3ccc(C(F)(F)F)cc32)CC1 in the assay.
RESULT: inactive

* * *

# Tested on: ACHN
# assay-procedure: NCI tumour cell line growth inhibition, 48 h
Active and inactive are the calls of the source. No stated cut-off is given here; in the data, active = GI50 up to about 1.1 µM and inactive = higher.
measured-property: GI50

Worked set:
molecule="COC(=O)C1=C(OC)c2cc3c(cc2C(c2cc(OC)c(OC)c(OC)c2)C1C(=O)OC)OCO3 (configuration not stated)" result="> 100 µM (inactive)"
molecule=COC1=CC(=O)c2c(O)ccc(O)c2C1=O result="16.5 µM (inactive)"
molecule=O=C(/C=N/c1ccccc1C(=O)[O-])c1cccs1.O=C(/C=N/c1ccccc1C(=O)[O-])c1cccs1.[Zn+2] result="> 100 µM (inactive)"
molecule=O=C(/C=C1\Nc2ccccc2N\C1=C/C(=O)c1ccc(F)cc1)c1ccc(F)cc1 result="> 100 µM (inactive)"
molecule="C=C(C)COC1CCCCO1 (configuration not stated)" result="> 100 µM (inactive)"
molecule="Cc1ccccc1OC(C)C(=O)NN1C(=O)CC(=O)N(c2ccccc2)C1=S (configuration not stated)" result="53.8 µM (inactive)"

Attention now turns to another entry.
QUERY: # GI50 lookup, item COc1cc([C@@H]2c3cc4c(cc3C[C@@H]3COC(=O)C32)OCO4)cc(OC)c1O (some centres not stated)
RESULT: 0.03 µM (active)

* * *

# Test system: SF-295
# assay-procedure: NCI tumour cell line growth inhibition, 48 h
Activity calls are given as the source filed them. Rule as the data show it: active = GI50 up to about 1.1 µM and inactive = higher.
Lab note: assign the record to one of T for active, F for inactive

QUERY: Name the outcome recorded for O=C(CNC(=O)c1ccccc1)Oc1c(Cl)c(Cl)c(Cl)c(Cl)c1Cl in the assay.
RESULT: F

QUERY: Name the outcome recorded for CC(=O)OC1=c2ccccc2=C(O)C2C1C=NN2C(C)=O (stereo not given) in the assay.
RESULT: F

QUERY: Name the outcome recorded for COC(=O)C1(F)C(=O)NC(=O)NC1OC (stereo not given) in the assay.
RESULT: F

QUERY: Name the outcome recorded for COC1=CC(=O)c2c(O)ccc(O)c2C1=O in the assay.
RESULT: F

QUERY: Name the outcome recorded for CCCn1c(=O)c2ccccc2[n+]2c(-c3ccc([N+](=O)[O-])cc3)csc12 in the assay.
RESULT: F

QUERY: Name the outcome recorded for COc1ccc(/C=C2/SC(c3ccc(Cl)cc3)N(NC(=O)CCCCCCCCC(=O)NN3C(=O)/C(=C\c4ccc(OC)c(OC)c4)SC3c3ccc(Cl)cc3)C2=O)cc1OC (stereo not given) in the assay.
RESULT: F

QUERY: Name the outcome recorded for COc1ccc(CN2C[C@H]3[C@@H](CC(=O)O[C@H]3C)CC2=O)cc1 in the assay.
RESULT: F

QUERY: Name the outcome recorded for NS(=O)(=O)c1ccc(/C=C/c2cccc(O)c2)cc1 in the assay.
RESULT: F

QUERY: Name the outcome recorded for CC(=O)C(CN(C)C)C(c1ccccc1)c1c(O)c2ccccc2oc1=O (stereo not given) in the assay.
RESULT: F

QUERY: Name the outcome recorded for COc1ccccc1/N=N/C(=N/NC(=O)c1ccc(C)cc1)c1ccc(N(CCC#N)CCC#N)cc1OC in the assay.
RESULT: F

QUERY: Name the outcome recorded for O=C(N/N=C/c1ccc([N+](=O)[O-])o1)c1ccc(C(=O)N/N=C/c2ccc([N+](=O)[O-])o2)cc1 in the assay.
RESULT: F

QUERY: Name the outcome recorded for O=C(O)CCn1cnc2c(S)ncnc21 in the assay.
RESULT: F

QUERY: Name the outcome recorded for C=C(C)C1CC2=C(C(=O)OC)C=C(O2)C(C(=C)C)[C@@H]2OC(=O)/C(=C\C1O)[C@H]2N(C)C (stereo not given in full) in the assay.
RESULT: F

QUERY: Name the outcome recorded for CCOc1ccc(C2=C(Cl)c3cc(OC)c(OC)cc3C2Cl)cc1 (stereo not given) in the assay.
RESULT: F

QUERY: Name the outcome recorded for Cc1c(-c2ccccc2)n[nH]c1NC1(C)C(=O)N(/N=C/c2ccccc2)N=C1c1ccccc1 (stereo not given) in the assay.
RESULT: F

QUERY: Name the outcome recorded for CN1CCN(CCCN2c3ccccc3Sc3ccc(C(F)(F)F)cc32)CC1 in the assay.
RESULT: F

QUERY: Name the outcome recorded for CC(C)c1ccc(C(c2c(O)oc3ccccc3c2=O)c2c(O)oc3ccccc3c2=O)cc1 in the assay.
RESULT: F

QUERY: Name the outcome recorded for O=C1Nc2ccccc2/C1=C1/Nc2ccccc2/C1=N/OCCOCCO in the assay.
RESULT: F

QUERY: Name the outcome recorded for C/C1=C/C[C@@H](/C(C)=C/c2csc(C)n2)OC(=O)C[C@H](O)C(C)(C)C(=O)[C@H](C)[C@@H](O)[C@@H](C)CCC1 [EPOTHILONE D] in the assay.
RESULT: T

QUERY: Name the outcome recorded for COc1ccc(NCC#N)cc1 in the assay.
RESULT: F
